Source listed as patent US20230142739A1.

testSystem: 14-3-3σ(C42)/ERα-pp complex (Homo sapiens, UniProt P31947, C38N/N42C)
Construct: with a truncated C-terminus after T231; His6 (N, cleaved yes); made in house; host or cells: E. coli NiCo21 (DE3), pPROEX HTb
Sequence (P31947 1-231 C38N/N42C, other chains not shown): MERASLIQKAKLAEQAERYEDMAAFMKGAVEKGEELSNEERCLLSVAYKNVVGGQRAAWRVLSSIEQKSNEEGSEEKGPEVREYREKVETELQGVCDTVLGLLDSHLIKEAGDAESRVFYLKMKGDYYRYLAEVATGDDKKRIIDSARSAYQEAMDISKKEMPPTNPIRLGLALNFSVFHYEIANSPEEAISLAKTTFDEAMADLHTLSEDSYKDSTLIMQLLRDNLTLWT
assayOverview: Disulfide tethering primary screen, intact protein LC/MS, protein-peptide complex
Assay type: binding
observationType: hit category (binding in presence vs absence of ERα-pp)

CN(C)CCSSCCNC(=O)c1ccccc1Sc1ccccc1C#N ... cooperative
CN(C)CCSSCCNC(=O)C1CCN(C(=O)c2ccccc2NC(=O)c2ccccc2)CC1 ... neutral
CN(C)CCSSCCn1cc(CN2C(=O)C(=O)c3ccccc32)nn1 ... neutral
NCCSSCCCC(=O)NCC(c1ccccc1)c1ccccc1 ... cooperative

----------
testSystem: p65_45/14-3-3γ (Homo sapiens, UniProt P61981)
Sequence (P61981 whole entry, other chains not shown, the tested form may be a part): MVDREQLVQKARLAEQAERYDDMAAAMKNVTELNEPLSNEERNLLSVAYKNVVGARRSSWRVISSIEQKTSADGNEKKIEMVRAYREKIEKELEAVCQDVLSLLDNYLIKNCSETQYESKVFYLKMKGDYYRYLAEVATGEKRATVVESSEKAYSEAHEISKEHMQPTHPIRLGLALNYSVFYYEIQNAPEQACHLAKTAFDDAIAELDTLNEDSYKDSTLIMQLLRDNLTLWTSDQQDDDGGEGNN
assayOverview: Fluorescence anisotropy protein titration, p65_45 peptide/14-3-3γ in presence of 1 mM fragment
Assay type: binding
Parameters: The full length 14-3-3γ was dialysis against 25 mM HEPES pH7.5; made in house; host or cells: E. coli BL21(DE3), pPROEX HTb
assaySetup: fold-change of apparent KD in comparison to a DMSO control; 1 mM fragment
Method: SF: the fold-change of apparent KD in comparison to a DMSO control. During compound titrations, the 14-3-3γ concentration was constant 50 μM and the compound was titrated in a 1:1 dilution series. […] The plates (Corning 384 well plates, black, round bottom, low binding) were incubated for 3 h RT prior to fluorescence anisotropy (FA) measurements with the Tecan Infinite 500 plate reader (FITC dye: excitation 485 nm, emission 535 nm). […]
observationType: SF
// return just the number, without any unit appended

Examples with their reported SF follow.
COC1CCN(S(=O)(=O)c2ccc(C=O)cc2)CC1 [23t] ... 16.5
CN(C)S(=O)(=O)c1ccc(C=O)cc1 [23c] ... 1.8
CN(C)C1CCN(S(=O)(=O)c2ccc(C=O)cc2)CC1 [23n] ... 3.5
CN(C1CCOCC1)S(=O)(=O)c1ccc(C=O)cc1 [23x] ... 5.9
COC1CCCN(S(=O)(=O)c2ccc(C=O)cc2)C1 (centres unmarked) [23r] ... 7.5

Inquiry: Answer with reported SF of CN(C1CCCCC1)S(=O)(=O)c1ccc(C=O)cc1 [23w]
Reply text: 12.7

Inquiry: Answer with reported SF of CCN1CCN(S(=O)(=O)c2ccc(C=O)cc2)CC1 [23i]
Reply text: 3.3

Inquiry: Answer with reported SF of C[C@H]1CCCN1S(=O)(=O)c1ccc(C=O)cc1 [23e]
Reply text: 20.6

Inquiry: Answer with reported SF of O=Cc1ccc(S(=O)(=O)N2CCC(N3CCCC3)CC2)cc1 [23m]
Reply text: 3.5

Inquiry: Answer with reported SF of O=Cc1ccc(S(=O)(=O)N2CCc3ccccc3C2)cc1 [23y]
Reply text: 0.7

Inquiry: Answer with reported SF of CN1CCCN(S(=O)(=O)c2ccc(C=O)cc2)CC1 [23g]
Reply text: 4.0

----------
# Kd per record follows
testSystem: ER (Homo sapiens, UniProt P31947)
Sequence (P31947 whole entry, other chains not shown): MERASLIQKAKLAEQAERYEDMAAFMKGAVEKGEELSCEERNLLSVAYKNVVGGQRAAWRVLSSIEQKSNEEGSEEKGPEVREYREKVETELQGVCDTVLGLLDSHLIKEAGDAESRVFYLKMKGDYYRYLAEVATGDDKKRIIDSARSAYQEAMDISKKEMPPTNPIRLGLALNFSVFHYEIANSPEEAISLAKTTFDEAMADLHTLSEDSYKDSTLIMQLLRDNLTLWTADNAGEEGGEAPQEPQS
assayOverview: MS (KD,app), ER
Format: binding
assaySetup: 24 hr incubation
Just the number please, in µM, no unit attached.

Examples with their reported Kd follow.
O=Cc1ccc(S(=O)(=O)N2CCC(CNC(=O)CCl)CC2)cc1 ... 150
O=C(CCl)NCC1CCN(S(=O)(=O)c2ccc(Cl)cc2)CC1 ... 7.15
C=CS(=O)(=O)NCC1CCN(C(=O)C2(Nc3ccc(Cl)cc3)CCOCC2)CC1 ... 0.125
CC(C)(Oc1ccc(Cl)cc1)C(=O)N1CCC(CCNC(=O)CCl)CC1 ... 33.7
CC(C)(Oc1ccc(Cl)cc1)C(=O)N1CCC(CNC(=O)CCl)CC1 ... 84.3

Inquiry: Answer with reported Kd of O=C(CCl)CCC1CCN(C(=O)C2(Nc3ccc(Cl)cc3)CCOCC2)CC1
Reply text: 0.145
